- System: MDA-MB-435 melanoma
- test name: NCI-60 one-dose screen, 48 h (100 = growth as untreated, 0 = no growth, -100 = all killed)
- measurement context: 10 µM unless noted
Compounds without any hit were thinned out: in the full panel of roughly 83,000, 20% have a hit.
Reported growth values follow for various compounds
Supply the numeric figure in %, leaving out any unit text.

COc1ccc(Oc2nc(Nc3ccc(N4CCOCC4)cc3)ncc2NC(=O)c2cc(OC)cc(OC)c2)cc1    40.4

Task item: Param readout= growth; system= MDA-MB-435 melanoma; entry= `COc1ccc(-c2nc(Cl)c3c(C)nn(-c4ccc(F)cc4)c3n2)cc1` ; returns value.
Reply: 112

Task item: What do you get for `COc1ccc(-c2[nH]c3ccccc3c2-c2ccc(OC)cc2)cc1` ?
Reply: -33.1

Task item: Then what about the compound `O=C1/C(=C/c2ccc(F)c(F)c2)CN(C(=O)C(Cl)Cl)C/C1=C\c1ccc(F)c(F)c1` ?
Reply: -94.8

Task item: // same read-out, input: CCCCCCCCCCCCCCCC(=O)O[C@@H]1[C@@H](O)[C@@H](O)C([C@H](NC(=O)[C@@H]2C[C@@H](CCC)CN2C)[C@H](C)Cl)O[C@@H]1SC (stereo partly specified)
Reply: 107

Task item: Record: `O=C(CCl)n1nnnc1Cc1ccccc1`
Reply: 103

Task item: Continue with `CCOC(=O)C(=CCC(C)C)C(=O)OCC`
Reply: 99.7

Task item: Now consider `COc1ccc(Cl)cc1Nc1nc(C(F)(F)F)ccc1C(=O)N/N=C/c1ccc(N(C)C)cc1` and answer again.
Reply: 121

Task item: What do you get for `CCOC(=O)c1nc2c3ccccc3cnn2c1C(=O)c1ccc(OC)cc1` ?
Reply: 107

Task item: Try this compound too: CC(=O)N1N=C(c2ccc(Nc3nc(Nc4ccc(F)cc4)nc(Nc4ccc(F)cc4)n3)cc2)CC1c1ccccc1 (stereo unspecified)
Reply: 105

Task item: Also, `O=C(NCCCN1CCCCC1)c1ccc(-c2nc3ccc4[nH]ncc4c3c3c2CCCC3)cc1` please.
Reply: 26.7

Task item: Next up: CCCN1C(=O)/C(=c2\sc3n(c2=O)C2C(NN=3)N(CC)C(=O)N2CC)c2ccccc21 (stereo unspecified)
Reply: -21.2

Task item: Could you do the same for `O=C(Cc1ccc(F)cc1)c1ccccc1` , please?
Reply: 106

Task item: Please give the result for `CC(=O)OC[C@]12CCC(C)(C)C=C1[C@H]1CC[C@@H]3[C@@]4(C)CCCNC(C)(C)[C@@H]4CC[C@@]3(C)[C@]1(C)CC2` too.
Reply: 29.7

Task item: What about this compound? `COc1ccc(/C=C/C(=O)c2cc3c(N)c(C(=O)Nc4ccccc4Cl)sc3nc2C)cc1`
Reply: -61.6

Task item: Same for `Cc1cc(N2CCN(CC(=O)Nc3ccc4c(ccn4Cc4ccccc4)c3)CC2)nc(N2CCCCCC2)n1`
Reply: 60.7

Task item: What do you get for CN(Cc1ccccc1)c1nc(Cl)c(C2CC(c3ccc(F)cc3)=NN2C=O)s1 (stereo unspecified) ?
Reply: 96.8

Task item: What about `Nc1nc(CSc2n[nH]c(N)n2)nc(Nc2ccccc2)n1` ?
Reply: 94.7

Task item: // next record Fc1ccc(NC(c2ccc(F)cc2)C2CCN(CCCCc3ccccc3)CC2)cc1 (stereo unspecified)
Reply: 43.8

Task item: What about this compound? `COC(=O)c1nc(-c2ccccc2)oc1S(=O)(=O)N(C)CCO`
Reply: 60.9

Task item: Item: C/C=C(\C)C(=O)N[C@H]1CC[C@]2(C)C3CC[C@@]4(C)C(CC[C@@H]4C(C)N(C)C)C3CCC2[C@H]1OC(C)=O (stereo partly specified)
Reply: -56.8

Task item: Try the compound `CC1(C)C(N)=Nc2cc(OCCCCN3Cc4ccccc4C3)c(OCC3CC3)cc21`
Reply: 71.9

Task item: Please do the same for `COc1ccc(Nc2nn3c(SCC(=O)c4ccc(C)cc4)nnc3s2)cc1` as well.
Reply: 105

Task item: Next: `CCCCCCNC(=O)Oc1ccc(/C(=C(/CC)Cc2ccccc2)c2ccc(OCCCN(C)C)cc2)cc1`
Reply: 87.8

Task item: Queued: `O=C(Nc1ccccc1C(=O)N/N=C(\c1ccccc1)c1ccccn1)c1ccccc1`
Reply: 27.7

---

- System: NCI-H522 lung
- test name: NCI-60 one-dose screen, 48 h (100 = growth as untreated, 0 = no growth, -100 = all killed)
- measurement context: 10 µM unless noted
The panel holds about 83,000 compounds, 20% with a hit somewhere; the sample as a whole holds those more often. Active and inactive are the calls of the source. How the source made its calls: active means growth percent below 10; inactive means the rest.
In this section, each of the compounds is paired with its reported growth.

Some entries whose results are on file:
CCOc1nc(-c2ccccc2)cc2c(O)c(C(=O)N/N=C/c3ccc(N(C)C)cc3)[nH]c(=O)c12    80.4% (inactive)
COc1ccc(-c2csc(NC(=O)CN3CCN(CCO)CC3)n2)cc1NS(=O)(=O)c1cccc2c(N(C)C)cccc12    79% (inactive)

Task item: Please tell me: growth of `CCN(c1cc(-c2ccc(CN3CCC(/C=C/S(=O)(=O)c4ccccc4)CC3)cc2)cc(C(=O)NCc2c(C)cc(C)[nH]c2=O)c1C)C1CCOCC1` , system NCI-H522 lung?
Reply: 77.7% (inactive)

---

- System: T-47D breast
- test name: NCI-60 one-dose screen, 48 h
- measurement context: 10 µM unless noted
Compounds without any hit were thinned out: in the full panel of roughly 83,000, 20% have a hit. Calls of active or inactive are those of the source. How the source made its calls: active means growth percent below 10; inactive means the rest.
Mark one answer only. Choices: yes (active), no (inactive)

Record excerpt, results attached:
CC12OC(CC(O)C1O)n1c3ccccc3c3c4c(c5c6ccccc6n2c5c31)C(=O)N(CCN1CCOCC1)C4=O (stereo not given)    yes
C/C=C(/C)C(=O)O[C@@H]1CC(C)(C)CC2C34OC(=O)[C@@]21CC[C@@]3(C)[C@]1(C)CCC2C(C)(C)C(=O)CC[C@]2(C)C1C[C@@H]4Cl (stereo not given in full)    no
Nc1nc2ccccc2c2c(=O)c3ccc(Cl)cc3sc12    no
O=C1C=C(Nc2ccccc2)c2ncccc2C1=O    yes

Task item: // param item: O=C1N=c2ccccc2=C1c1sc(=S)n(C2CC(=O)N(c3ccc(Cl)cc3)C2=O)c1O (stereo not given) ; yields the recorded call
Reply: no

---

- Test system: TK-10 renal
- test name: NCI-60 one-dose screen, 48 h (100 = growth as untreated, 0 = no growth, -100 = all killed)
- measurement context: 10 µM unless noted
- Procedure: Growth inhibition of the TK-10 human tumor cell line is measured as a screen for anti-cancer activity. Cells are grown in 96 well plates and exposed to the test compound for 48 hours. Compounds are tested at a single concentration, which is 10^-5 M for most compounds. The reported endpoint is percent growth (GI% or GIPRCNT), where numbers from 0 - 100% represent growth inhibition, and numbers from -100% - 0 represent cell death. For example, a value of 40 represents 60% growth inhibition. […]
The panel holds about 83,000 compounds, 20% with a hit somewhere; the sample as a whole holds those more often.
measured metric: growth (%)
Your answer should be a plain number; it is taken to be in %.

Some compounds with recorded growth:
CC1(C)C(N)=Nc2cc(OCCCCN3Cc4ccccc4C3)c(OCC3CC3)cc21    86.9
Cc1ccc(-c2nc3nc(-c4ccc(Br)cc4)nc(N4CCCNCC4)c3o2)cc1    19.9
COc1ccc(C/C(C)=C(\c2ccc(O)cc2)c2ccc(OCCCN(C)C)cc2)cc1    86.9
CCNC(=S)n1nc(SC)c(C(=O)OCC)c1N    106
Fc1ccccc1-c1cnn2cc(-c3ccccc3)cnc12    104

Task item: Please look up its growth: `O=S(=O)(Nc1ccc(F)cc1)c1ccc(-c2cnc(C3CC3)o2)cc1`
Reply: 32.4

Task item: And then COc1ccc2nc3cc(Cl)ccc3c(NCCCNCCC(C)O)c2c1 (stereo unspecified) , what is it?
Reply: 8.67

Task item: // same read-out, input: `O=C(CCl)n1nnnc1Cc1ccccc1`
Reply: 88.1

Task item: Try `Cc1ccc(NC(=O)N/C(N)=N/c2nc(=O)c3ccccc3s2)cc1` next.
Reply: 116

Task item: Repeat for the following compound: `O=c1c(/C=C/c2ccco2)nnc2sc(Nc3ccc(Cl)cc3)nn12`
Reply: 146

Task item: Now consider `N#C/C(=C\c1ccc(Br)cc1)n1nnc2c(F)cccc21` .
Reply: 2.41

---

Form field: growth (one value per entry).
- System: PC-3 prostate
- test name: NCI-60 one-dose screen, 48 h (100 = growth as untreated, 0 = no growth, -100 = all killed)
- measurement context: 10 µM unless noted
- Procedure: Growth inhibition of the PC-3 human tumor cell line is measured as a screen for anti-cancer activity. Cells are grown in 96 well plates and exposed to the test compound for 48 hours. Compounds are tested at a single concentration, which is 10^-5 M for most compounds. The reported endpoint is percent growth (GI% or GIPRCNT), where numbers from 0 - 100% represent growth inhibition, and numbers from -100% - 0 represent cell death. For example, a value of 40 represents 60% growth inhibition. […]
This is part of a sample that, as a whole, favours compounds with a hit. Of some 83,000 tested, about 20% had one in any assay.
Output spec: scalar in %, unitless text.

COc1cc(-c2[nH]ncc2Nc2ccc(Cl)cc2)cc(OC)c1OC    59.9
N=C(N)SCc1c2ccccc2c(CSC(=N)N)c2ccccc12    61.8

Task item: Tell me the measured growth of `CN(C)CCCn1c2nc(=O)[nH]c(=O)c-2nc2cc(Cl)c(Cl)cc21` , please.
Reply: 60.2
